Source of measurements: patent US5109003A

Measured LD50 values are reported for all entries that follow.
protocol.text: in vivo
setup.conditions: mouse, iv, mice, i.v., read-out: LD50 (intravenous)

# input // Input: CCOCn1cnc2c1c(=O)n(CCCCC(C)(C)O)c(=O)n2CC . Output its LD50 only.
# output > 200 mg/kg

# input // Input: Cn1c(=O)n(CCCCC(C)(C)O)c(=O)c2c1ncn2CCC(O)CO (stereo not drawn) . Output its LD50 only.
# output > 100 mg/kg

# input // Input: C=CCn1cnc2c1c(=O)n(CCCCC(C)(C)O)c(=O)n2C . Output its LD50 only.
# output > 100 mg/kg

# input // Input: Cn1cnc2c1c(=O)n(CCCCC(C)(C)O)c(=O)n2C . Output its LD50 only.
# output > 200 mg/kg

# input // Input: C=CCn1cnc2c1c(=O)n(CCCCC(C)(C)O)c(=O)n2CC . Output its LD50 only.
# output > 100 mg/kg

# input // Input: CCOCCn1c(=O)c2c(ncn2CCCCC(C)(C)O)n(C)c1=O . Output its LD50 only.
# output > 200 mg/kg

Continuing:
# input // Input: Cn1c(=O)n(CCCCC(C)(C)O)c(=O)c2[nH]cnc21 . Output its LD50 only.
# output > 200 mg/kg

# input // Input: CCn1c(=O)n(CCCCC(C)(C)O)c(=O)c2c1ncn2C . Output its LD50 only.
# output > 200 mg/kg

# input // Input: CCn1cnc2c1c(=O)n(CCCCCC(C)(C)O)c(=O)n2CC . Output its LD50 only.
# output > 200 mg/kg

# input // Input: CCCn1cnc2c1c(=O)n(CCCC(C)(C)O)c(=O)n2CC . Output its LD50 only.
# output > 200 mg/kg

# input // Input: CCCn1c(=O)c2c(ncn2CCCCC(C)(C)O)n(C)c1=O . Output its LD50 only.
# output 100 to 200 mg/kg

# input // Input: CCn1cnc2c1c(=O)n(CCCCC(C)(C)O)c(=O)n2CC . Output its LD50 only.
# output > 200 mg/kg

* * *

Measured inhibition in vivo at 10 mg/kg values are reported for all entries that follow.
Test system: ethanol-induced gastric ulcer
protocol.text: Protective effect on ethanol-induced gastric ulcer in rats
Format: in vivo, rat (male Sprague-Dawley)
setup.conditions: Rattus norvegicus, po, 1 h; 10 mg/kg p.o.; vs. control distilled water
Numeric only. Scale: %

Here is how some compounds turned out for inhibition in vivo at 10 mg/kg.
# input // Input: CCn1cnc2c1c(=O)n(CCCCCC(C)(C)O)c(=O)n2CC . Output its inhibition in vivo at 10 mg/kg only.
# output 83.1

# input // Input: C=CCCn1c(=O)c2c(ncn2CCCCC(C)(C)O)n(CC)c1=O . Output its inhibition in vivo at 10 mg/kg only.
# output 79.4

# input // Input: CCCn1cnc2c1c(=O)n(CCCC(C)(O)CC)c(=O)n2C (centres unmarked) . Output its inhibition in vivo at 10 mg/kg only.
# output 72

# input // Input: CCn1cnc2c1c(=O)n(CCCCC(C)(C)O)c(=O)n2CC . Output its inhibition in vivo at 10 mg/kg only.
# output 81.7

Query compound follows.
# input // Input: C=CCn1cnc2c1c(=O)n(CCCCC(C)(C)O)c(=O)n2CC . Output its inhibition in vivo at 10 mg/kg only.
# output 94.4

* * *

System: stress-induced gastric ulcer
protocol.text: Protective effect on gastric ulcer induced by restraint plus water-immersion stress in rats
Assay type: in vivo, rat (male Sprague-Dawley)
setup.conditions: Rattus norvegicus, po; 10 mg/kg p.o.; vs. control distilled water
reported.endpoint: inhibition in vivo at 10 mg/kg (%)
Numeric only. Scale: %

Here is how some compounds turned out for inhibition in vivo at 10 mg/kg.
# input For stress-induced gastric ulcer, give the measured inhibition in vivo at 10 mg/kg of the entry CCCn1cnc2c1c(=O)n(CCCCCC(C)(C)O)c(=O)n2C [Compound 11]
# output 38.5

# input For stress-induced gastric ulcer, give the measured inhibition in vivo at 10 mg/kg of the entry CCn1c(=O)n(CCCCC(C)(C)O)c(=O)c2c1ncn2C [Compound 2]
# output 75

# input For stress-induced gastric ulcer, give the measured inhibition in vivo at 10 mg/kg of the entry C=CCn1cnc2c1c(=O)n(CCCCC(C)(C)O)c(=O)n2C [Compound 20]
# output 59.2

# input For stress-induced gastric ulcer, give the measured inhibition in vivo at 10 mg/kg of the entry CCCn1cnc2c1c(=O)n(CCCCC(C)(C)O)c(=O)n2CC [Compound 1]
# output 66.5

# input For stress-induced gastric ulcer, give the measured inhibition in vivo at 10 mg/kg of the entry Cn1cnc2c1c(=O)n(CCCCC(C)(C)O)c(=O)n2C [Compound 7]
# output 39.2

# input For stress-induced gastric ulcer, give the measured inhibition in vivo at 10 mg/kg of the entry CCCn1c(=O)c2c(ncn2CCCCC(C)(C)O)n(C)c1=O [Compound 8]
# output 53.5

Continuing:
# input For stress-induced gastric ulcer, give the measured inhibition in vivo at 10 mg/kg of the entry CCn1cnc2c1c(=O)n(CCCCC(C)(C)O)c(=O)n2CC [Compound 16]
# output 73.8

# input For stress-induced gastric ulcer, give the measured inhibition in vivo at 10 mg/kg of the entry C=CCn1cnc2c1c(=O)n(CCCCC(C)(C)O)c(=O)n2CC [Compound 19]
# output 60.8

# input For stress-induced gastric ulcer, give the measured inhibition in vivo at 10 mg/kg of the entry CCCn1cnc2c1c(=O)n(CCCCC(C)=O)c(=O)n2C [Compound 22, reference compound]
# output 29.2

# input For stress-induced gastric ulcer, give the measured inhibition in vivo at 10 mg/kg of the entry CCCn1cnc2c1c(=O)n(CCCC(C)(C)O)c(=O)n2CC [Compound 3]
# output 50.8

# input For stress-induced gastric ulcer, give the measured inhibition in vivo at 10 mg/kg of the entry Cn1c(=O)n(CCCCC(C)(C)O)c(=O)c2[nH]cnc21 [Compound 5]
# output 71.2

# input For stress-induced gastric ulcer, give the measured inhibition in vivo at 10 mg/kg of the entry CCOCCn1c(=O)c2c(ncn2CCCCC(C)(C)O)n(C)c1=O [Compound 10]
# output 31.5

# input For stress-induced gastric ulcer, give the measured inhibition in vivo at 10 mg/kg of the entry CCOCn1cnc2c1c(=O)n(CCCCC(C)(C)O)c(=O)n2CC [Compound 18]
# output 73.5

# input For stress-induced gastric ulcer, give the measured inhibition in vivo at 10 mg/kg of the entry CCn1c(=O)n(CCCCCC(C)(C)O)c(=O)c2c1ncn2C [Compound 4]
# output 59.2

# input For stress-induced gastric ulcer, give the measured inhibition in vivo at 10 mg/kg of the entry Cn1c(=O)n(CCCCC(C)(C)O)c(=O)c2c1ncn2CCC(O)CO (stereo not shown) [Compound 9]
# output 31.5

# input For stress-induced gastric ulcer, give the measured inhibition in vivo at 10 mg/kg of the entry CCn1cnc2c1c(=O)n(CCCCCC(C)(C)O)c(=O)n2CC [Compound 13]
# output 80.8

* * *

Measured Ulcer index values are reported for all entries that follow.
Test system: ethanol-induced gastric ulcer
protocol.text: Protective effect on ethanol-induced gastric ulcer in rats
Type: in vivo, rat (male Sprague-Dawley)
setup.conditions: 10 mg/kg p.o.; control distilled water (93.1 ± 8.9 mm); mean ± S.E.
Method: 1.2. Protective Effect on Ethanol-induced Gastric Ulcer in Rats Male Sprague-Dawley rats weighing 300-400 g were used in groups of 4-36. After fasting overnight, the animals were given orally the compounds. Thirty minutes later they received absolute ethanol (1 ml/body) orally and were sacrificed after 60 minutes. The stomach was removed and examined for erosions. The ulcer index was obtained in the same way as under 1.1.
Could you write the number and then its unit?

# input // Input: CCOCn1cnc2c1c(=O)n(CCCCC(C)(C)O)c(=O)n2CC . Output its Ulcer index only.
# output 16.8 ± 7.1 mm

Continuing:
# input // Input: CCn1c(=O)n(CCCCC(C)(C)O)c(=O)c2c1ncn2C . Output its Ulcer index only.
# output 23.5 ± 7.0 mm

# input // Input: CCn1c(=O)n(CCCCCC(C)(C)O)c(=O)c2c1ncn2C . Output its Ulcer index only.
# output 21.2 ± 8.4 mm

# input // Input: CCn1cnc2c1c(=O)n(CCCCC(C)(C)O)c(=O)n2CC . Output its Ulcer index only.
# output 17.0 ± 7.1 mm

# input // Input: CCn1cnc2c1c(=O)n(CCCCCC(C)(C)O)c(=O)n2CC . Output its Ulcer index only.
# output 15.7 ± 9.4 mm

# input // Input: CCCn1cnc2c1c(=O)n(CCCCC(C)(C)O)c(=O)n2CC . Output its Ulcer index only.
# output 12.0 ± 6.9 mm

# input // Input: C=CCCn1c(=O)c2c(ncn2CCCCC(C)(C)O)n(CC)c1=O . Output its Ulcer index only.
# output 19.2 ± 9.2 mm

# input // Input: CCCn1cnc2c1c(=O)n(CCCC(C)(O)CC)c(=O)n2C (stereo not drawn) . Output its Ulcer index only.
# output 26.1 ± 10.8 mm

# input // Input: C=CCn1cnc2c1c(=O)n(CCCCC(C)(C)O)c(=O)n2CC . Output its Ulcer index only.
# output 5.2 ± 2.0 mm
